- Tested on: secretion of ACTH by cultured rat pituitary cells
- experiment_description: Blocking of oCRF-stimulated ACTH secretion by cultured rat pituitary cells
- Format: cell-based
- test_settings: cultured rat pituitary cells; 1 nM oCRF; five independent experiments; read-out: concentration that blocks the secretion of ACTH due to 1 nM oCRF by 50%
measured_attribute: pIC50
Please express pIC50 as -log10 of the molar concentration.

// recorded pIC50 for H-DLTFHLLREMLEMAKAEQEAEQAALNRLLLEEA-NH2 [AHC (9-41)] : 6.71

The values you see were collected from patent US4605642A.
